Source of measurements: ChEMBL document CHEMBL2146369

# Tested on: THP-1
# protocol details: Cytotoxicity against PMA-stimulated human THP1 cells after 72 hrs by MTT assay
# Format: cell-based
# settings: THP-1, 72 h
pIC50: −log10 of the molar value.
pIC50 values, listed per item

Worked cases, pIC50 given:
COC(=O)C1=C(C)N2CCO[C@@]2(C)[C@@H](C(=O)OC)[C@@H]1c1ccc[nH]1 (racemic)
< 3.40
COC(=O)C1=C(C)N2CCO[C@@]2(C)[C@@H](C(=O)OCc2ccccc2)[C@@H]1c1cccc([N+](=O)[O-])c1 (racemic)
< 3.40

Query: Name the recorded pIC50 of the compound listed here: COC(=O)C1=C(C)N2C(=O)[C@H](C)O[C@@]2(C)[C@@H](C(=O)OC)[C@@H]1c1cccc(Cl)c1 (racemic)
Response: < 3.40

Query: For the compound COC(=O)C1=C(C)N2C[C@@H](C)O[C@]2(C)[C@H](C(=O)OC(C)(C)C)[C@H]1c1cccc(Cl)c1 , report pIC50.
Response: < 3.40

* * *

# System: THP-1
# protocol details: Cytotoxicity against PMA-stimulated human THP1 cells after 72 hrs by MTT assay
# Assay type: cell-based
# settings: THP-1, 72 h
pIC50: −log10 of the molar value.
endpoint label: pIC50

Use these answered entries as a reference point.
CCCCCCCCCCCCCCCCOP(=O)([O-])OCC[N+](C)(C)C
5.15
COC(=O)C1=C(C)N2CCO[C@@]2(C)[C@@H](C(=O)OC)[C@@H]1c1ccco1 (racemic)
< 3.40
COC(=O)C1=C(C)N2CCS[C@@]2(C)[C@@H](C(=O)OC)[C@@H]1c1cccc(Cl)c1 (racemic)
< 3.40
COC(=O)C1=C(C)N2CCO[C@@]2(C)[C@@H](C(=O)OCc2ccccc2)[C@@H]1c1cccc(Cl)c1 (racemic)
< 3.40

Next, consider the following compound.
Query: Answer with the recorded pIC50 of COC(=O)C1=C(C)N2CCO[C@@]2(C)[C@@H](CO)[C@@H]1c1cccc([N+](=O)[O-])c1 (racemic) only.
Response: < 3.40
